Reference for the values: ChEMBL document CHEMBL5236581

- Assay: Thermodynamic solubility of compound in HCL at pH 2 incubated for 2 hrs with shaking by LC-UV analysis
- Assay type: physicochemical
- Measurement context: read-out: Therm_solubility

Compound: Cc1sc2c(c1C)C(c1ccc(Cl)cc1)=N[C@@H](CC(=O)NCCCCNC(=O)COc1cccc3c1C(=O)N(C1CCC(=O)NC1=O)C3=O)c1nnc(C)n1-2 (stereo partly specified)
solubility thermodynamic at 2 h [µM]: 171

###

- Assay: Thermodynamic solubility of compound in phosphate buffer at pH 7.4 incubated for 2 hrs with shaking by LC-UV analysis
- Type: physicochemical
- Measurement context: read-out: Therm_solubility
Endpoint name: solubility thermodynamic at 2 h (µM)

Compound: Cc1sc2c(c1C)C(c1ccc(Cl)cc1)=N[C@@H](CC(=O)NCCCCNC(=O)COc1cccc3c1C(=O)N(C1CCC(=O)NC1=O)C3=O)c1nnc(C)n1-2 (stereo partly specified)
Endpoint name: solubility thermodynamic at 2 h
Recorded result: 60
